Values were extracted from paper PMC12913247.

Catalogue of Papp A→B readings, one per entry.
experiment: Transcellular transport; details: human
Answer format: numeric, ×10⁻⁶ cm/s implied, no suffix.

Item COCCn1c2c([n+](Cc3cnccn3)c1C)C(=O)c1ccccc1C2=O : provide Papp A→B
3.36

Item O=C1CN(/N=C/c2ccc(-c3ccc([N+](=O)[O-])cc3)o2)C(O)=N1 [Dantrolene, Dantrolene sodium] : provide Papp A→B
5.98

Item NCC1(CC(=O)O)CCCCC1 : provide Papp A→B
10.8

* * *

tested on: HIBCPP cell layer; assay: Transcellular transport; conditions: Papp,correct (AP-to-BL)/Papp,correct (BL-to-AP)
Catalogue of Efflux ratio readings, one per entry.
Simply state the number, no unit and no words.

Use the examples below as a reference point.
Molecule | Subject Of Test | Efflux ratio
NCC1(CC(=O)O)CCCCC1 | HIBCPP cell layer | 50.7
C[n+]1ccc(-c2ccccc2)cc1 | HIBCPP cell layer | 1.03
[3H]CO[C@H]1[C@H](O)[C@@H](CO)OC(O)[C@@H]1O (stereo partly drawn) [[^3H]3-O-Methylglucose, methyl-D-glucose 3-O-[methyl-^3H]] | HIBCPP cell layer | 1.05

We next turn to a different molecule, shown below.
Item O=C1CN(/N=C/c2ccc(-c3ccc([N+](=O)[O-])cc3)o2)C(O)=N1 [Dantrolene, Dantrolene sodium] : provide Efflux ratio
0.52
